biological target: K2P10.1 (TREK-2) (Mus musculus, UniProt Q8BUW1); experiment: Two-electrode voltage clamp, Xenopus oocytes expressing K2P10.1 (TREK-2); conditions: Xenopus oocytes, 2 mM [K+]o pH 7.4
Sequence (Q8BUW1 whole entry): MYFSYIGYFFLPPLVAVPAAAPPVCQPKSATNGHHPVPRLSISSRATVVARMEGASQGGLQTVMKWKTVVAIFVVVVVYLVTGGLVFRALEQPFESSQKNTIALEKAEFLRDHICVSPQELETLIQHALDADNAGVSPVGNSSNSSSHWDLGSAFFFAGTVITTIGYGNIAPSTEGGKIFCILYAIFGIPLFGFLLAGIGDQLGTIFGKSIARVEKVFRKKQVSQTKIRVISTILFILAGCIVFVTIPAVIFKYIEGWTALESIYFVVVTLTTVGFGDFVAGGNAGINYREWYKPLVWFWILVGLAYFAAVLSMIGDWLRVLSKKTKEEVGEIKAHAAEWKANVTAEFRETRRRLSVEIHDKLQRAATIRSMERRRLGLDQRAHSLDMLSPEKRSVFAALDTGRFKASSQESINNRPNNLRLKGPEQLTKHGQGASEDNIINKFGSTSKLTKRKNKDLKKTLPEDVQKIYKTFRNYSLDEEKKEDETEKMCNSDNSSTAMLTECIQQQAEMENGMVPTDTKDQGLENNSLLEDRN
Measurement Label: EC50

O=C(O)CCn1c2ccc(Cl)cc2c2cc(Cl)ccc21 [ML67] :: > 250 µM

# input for lookup
Exam item: Consider the compound CC1(C)c2cc(Cl)ccc2N(CCc2nnn[nH]2)c2ccc(Cl)cc21 [ML67-33] tested on K2P10.1 (TREK-2) (Mus musculus, UniProt Q8BUW1); state its EC50.
Marked response: 30.2 µM

----------
Target: K2P2.1 (TREK-1) (Mus musculus)
Construct: expressed in transfected cells; host or cells: Xenopus oocytes (cRNA injection, pGEMHE/pMO)
Sequence (P97438 1-411 isoform P97438-2): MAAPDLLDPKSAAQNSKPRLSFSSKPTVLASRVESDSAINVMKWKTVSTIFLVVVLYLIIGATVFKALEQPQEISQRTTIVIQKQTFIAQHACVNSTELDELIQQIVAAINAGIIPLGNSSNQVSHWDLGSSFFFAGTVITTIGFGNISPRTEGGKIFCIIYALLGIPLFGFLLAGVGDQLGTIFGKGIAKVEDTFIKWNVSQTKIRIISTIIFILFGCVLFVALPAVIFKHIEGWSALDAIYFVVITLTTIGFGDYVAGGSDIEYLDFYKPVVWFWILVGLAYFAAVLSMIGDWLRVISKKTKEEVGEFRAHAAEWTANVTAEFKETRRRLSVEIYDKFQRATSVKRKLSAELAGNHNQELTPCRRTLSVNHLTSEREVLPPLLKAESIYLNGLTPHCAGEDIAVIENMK
Assay: Whole cell patch clamp of HEK-293T cells expressing K2P2.1 (TREK-1)
Format: cell-based, Murine
Conditions: HEK-293T cells, whole cell patch clamp; marked * in Table 1
Measurement Label: pEC50
pEC50 is a log-scale quantity: -log10 of the concentration expressed in molar.

Exam item: Look up and state reported pEC50 for "CC1(C)c2cc(Cl)ccc2N(CCc2nnn[nH]2)c2ccc(Cl)cc21"
Marked response: 5.01

----------
target: TREK-1 (Mus musculus, UniProt P97438); construct: expressed in transfected cells; assay: Modulation of TREK-1 by select compounds (agonist activity), Table 3; assay type: cell-based, Murine; settings: 50 μM
Measurement Label: % activity at 50 μM (%)
Please state the figure in %; there is no need to write the unit.

Study these solved cases before continuing.
O=C(O)CCN1c2ccc(Cl)cc2C2(CCCCC2)c2cccc(Cl)c21 :: 57.7
O=C(O)CCN1c2ccc(Br)cc2C2(CCCCC2)c2cc(Br)ccc21 :: 84.1
CC1(C)c2cc(Br)ccc2N(CCc2nnn[nH]2)c2ccc(Br)cc21 :: 100
Brc1ccc2c(c1)Oc1cc(Br)ccc1N2CCc1nnn[nH]1 :: 68.8
c1ccc2c(c1)N(CCc1nnn[nH]1)c1ccccc1C21CCCCC1 :: 32.3
c1ccc2c(c1)Oc1ccccc1N2CCc1nnn[nH]1 :: 17.8

Exam item: Look up and state reported % activity at 50 μM for O=C(O)CCC(CN1c2ccc(Br)cc2C2(CCCCC2)c2cc(Br)ccc21)C(=O)O (stereo not shown)
Marked response: 45

Exam item: Look up and state reported % activity at 50 μM for "CC1(C)c2ccccc2N(CCc2nnn[nH]2)c2ccccc21"
Marked response: 29.2

Exam item: Look up and state reported % activity at 50 μM for "Brc1ccc2c3ccc(Br)cc3n(CCc3nnn[nH]3)c2c1"
Marked response: 13.4

----------
molecular target: TREK-1 (Mus musculus, UniProt P97438); assay: Modulation of TREK-1 by select compounds (agonist activity), Table 3; settings: agonist activity on TREK-1
pEC50: −log10 of the molar value.
Measurement Label: pEC50

Study these solved cases before continuing.
O=C(O)CCC(CN1c2ccc(Br)cc2C2(CCCCC2)c2cc(Br)ccc21)C(=O)O (stereo not drawn) :: < 4.41
Brc1ccc2c3ccc(Br)cc3n(CCc3nnn[nH]3)c2c1 :: < 4.41

Exam item: Look up and state reported pEC50 for "Clc1ccc2c(c1)c1cc(Cl)ccc1n2[C@H]1C[C@H](c2nnn[nH]2)C1"
Marked response: > 3.90

Exam item: Look up and state reported pEC50 for "Brc1ccc2c(c1)C1(CCCCC1)c1cc(Br)ccc1N2CCc1nnn[nH]1"
Marked response: 4.41 to 5.07

Exam item: Look up and state reported pEC50 for "c1ccc2c(c1)N(CCc1nnn[nH]1)c1ccccc1C21CCCCC1"
Marked response: < 4.41

Exam item: Look up and state reported pEC50 for "O=C(O)CCN1c2ccc(Cl)cc2C2(CCCCC2)c2cc(Cl)ccc21"
Marked response: 4.41 to 5.07
